# Experiment: soluble on expression in E. coli; label from the status in PepcDB or PDB records
Readout Label: soluble on expression in E. coli

Seq	Readout Label	Observed Result
MGSDKIHHHHHHMKLAVYVHVPFCKSKCVYCDFYSVVSEKFDEYFSHLLREIDLYEEVLSESEIKTVYFGGGTPSVVPPSFLKMVLEKLERVSRGFTPDEITIEVNPESVETEKLKIYKQIGINRISLGVQACDDTVLKNAGRLYKEETLKKKAKIVLEQFENVNFDFILGLPGETDITLKKDFRFLEEFPPQHVSLYLLEVDERTRLFDLIQKGLVELPEEDDVERRHDLFVEFLKERGFLRYEISNFAKPGKKSLHNLFYWRNENYLGLGVSAGGHIGRFRYVNASDLKEYEEKITKGELPYEYVHENTEEEEALETVFMGLRIKEGVELNRVKILLPLLEKLQKKYPCYLKVKNGKIFLSEDGMNFSKKILSDLIEWYREGGR	soluble on expression in E. coli	not soluble
MRKYRLSEEQRAFSYQEDGTKKSVLLRQIIAISDFNDVIAGTAGGWIDRETVLAQEGNCWIYDQNAIAFGGTVISGNTRITGTSVLWGEVYATDNVWIDNSEISQGAYISDSVTIHDSLVYVQCRIFGHALIDQHSMIVAAQGLTPDHQLLLQIYDRARVSASRIVHQAQIYGDAVVRYAFIEHRAEVFDFASVEGNEENNVWLCDCAKVYGHAQVKAGIEEDAIPTIHYSSQVAEYAIVEGNCVLKHHVLIGGNAVVRGGPILLDEHVVIQGESRITGAVIIENHVELTDHAVVEAFDGDTVHVRGPKVINGEERITRTPLAGLLLEHHHHHH	soluble on expression in E. coli	not soluble

----------
# Experiment: soluble on expression in E. coli; label from the status in PepcDB or PDB records

Seq	soluble on expression in E. coli
MKSAEQWIDELQLESHPEGGFYRETIREVLKDGRRAPFSSIYFLLTDDNISHFHRIDADEVWYYHAGDSLTIHMINPDGEYTTATLGTDIQNGDVLQYVVPKGTIFASSIEFSNTYSLVGCMCQPAFEFKQFELFKQSELITQYPHLKSVIEKYALK	soluble
MGSDKIHHHHHHASCSNDDDEMDKYQKIYIRTGVAPGAEMGAAVVVDCVSNSSTADRSDFEIQLCAVQPVTRDVTAALGVDTLKVDTYNSANKTKCKLLPQDNYTIETSEVVLKTGQTVADSSFQVVLKNIEKLTNPDGYVLPVTLKGVTGMDEQAVSTSMKTVYIRIYTSVLYTSYTKPGNWSAVDRSAWSVSCSNVYADDDAKYGAHLAIDGEINTTWFTWGVANAGECWWNTVLDRPVTLTGFSVTKQSAYGSGYNLRSAEIKVRKEGETEWVTYPRVLTFRNFKGADPQYAAIEPPIPNVKEFRINCLTPDNYTGFAEINLYVKQ	not soluble
MSLDVTDAQAIADHWGRGDVFGLIVAALNQMAKPLDGLTVEELAPVDHFHSRGFPATVEFADRLPINAGEQILDIGCGLGGPARYMAKRFQCRVSGIDITGPFVEAANRLTALLHMEQQVEIAQGNGQRLPYPDSCFDGAYTQDVTMNVAERAGFFAEAYRVLKPGAFFALSEHGLGPQGKPHYPVPWSDDGTGAYLTAPAETRAILERTGFEAITVEDTGAKCVAGYGKVIERAEKGALPPLGLHLFMGESMVEKMRNAARNIEEGRTHPIQLICRKEGHHHHHH	soluble
MTDSTTLYPVFAEELLPGGGHRSFILKRGELLRLTDLNGNANVSLTLLNAHEKTERLNLPDSLKCQHTAKLSNGHCLYSDMGRVLAAIVTDTCGWSDSIGGVLNAQEVAEKYGQGRYQELRNGFFRNGVDNLLVELGKWGLGLSDLLMTLNLFSRVDVSETGTLHFAPNNSKAGDYIELYAPMDTLVVLTALQHPMDPNPDYVPQPLTLSWMKADASVAEHCRTSRPENERGFINTDRLFALEHHHHHH	soluble
MTFNQEQDYWAGYKANERALIIQTWSGFGRYAPDHLYPPHILPLDTDNETLGTTVLQALANSRTFVYDSPEDQDFFDTEKIRQRYEDWVAKLCGNLGYKTRRALFKNMMSVDIWLHNGCLKISPSRHVKLEAWDAIDADDVILSLDNSPEEIGAGLKLALSRCR	soluble
MGSDKIHHHHHHMNYLQIARNSLAAEQNALAKLSQNLNQQFNQVVELILNCEGRLVVGGIGKSGLIGKKMVATFASTGTPSFFLHPTEAFHGDLGMLKPIDIVMLISYSGESDDVNKLIPSLKNFGNKIIALTGNLNSTLAKHADYILDISVEREACPNNLAPTTSALVTLALGDALAVSLITARNFQPADFAKFHPGGSLGRRLLCRVKDQMQVRLPKVTENTNFTDCLTVMNEGRMGVALVMENENLKGIITDGDIRRALSANGTNTLNKTAKDLMTSNPKTINYNTYLSEAENFMKEKKIHSLVVVDDQNKVIGLVEFSS	not soluble
MSLDINQIALHQLIKRDEQNLELVLRDSLLEPTETVVEMVAELHRVYSAKNKAYGLFSEESELAQTLRLQRQGEEDFLAFSRAATGRLRDELAKYPFADGGFVLFCHYRYLAVEYLLVAVLSNLSSMRVNENLDINPTHYLDINHADIVARIDLTEWETNPESTRYLTFLKGRVGRKVADFFMDFLGASEGLNAKAQNRGLLQAVDDFTAEAQLDKAERQNVRQQVYSYCNEQLQAGEEIELKSLSKELAGVSEVSFTEFAAEKGYELEESFPADRSTLRQLTKFAGSGGGLTINFDAMLLGERIFWDPATDTLTIKGTPPNLRDQLQRRTSGGNLEHHHHHH	not soluble
MQPLKRIRHPSGSEILFDAKWHQYKLGGTALRSVSKLLDRFFPFDEKRVLELVSKKTGQPVDKIKQGWSRQALLGKNVHEFIECKLLKKPPPTFTLLMKRKQAREAARPADATGPAAITTTPLEDEVLHGEEALYLPVAEMAVEKVLSTYDVLGAEQVIAAPGWGIAGTIDFMGRNRRTNRVLIGDWKTTGSVTSNFRFGSFETACPGALRHLPNSKMYRYAMQVTIYGEILAREQYFEKQFFDAQLRASLTASLAVPSTDVTPPAPPAKTRGRPSSRAAAPAKSDIGSDVESLLKTFYRNNTEQRFEYGIVQLAKGEDGGVVAEFKEVTPETVMPPDCPEMTFDSLLQRVMEGVGV	soluble
MQVVSSATLPPTVASADLAIVGGRSSDEDVIKYSAIQTIKQEQQQQQQQQSNTALPSYNFPFFNGMQNDFPPNRMLYNDNTMQKSENDHFTGMNLSTSASSSGNSTSSKDQSRRQFYTESSNSSGNGAAATSGSNGSSSSTESKSDVFNISMNAFAATPGSKSEDHNIPSFNMLSSYYTGALKLSNSTSFANPDPYQILGPTSKNLAHSGSGQTQLWQFLLELLSDKRYSEVITWEGTQGEFKLVDPDEVARKWGERKSKPNMNYDKMSRALRYYYDKNIMAKVHGKRYAYKFDFQGIAQALQPPTASHPQDYFNSHAMGRIAPDFSSWTSANYRSLNIAGFNNGSTIFNPSVNYSAFGATGTSNNLSAARAFPLYR	not soluble
MSSAHNAYNAGIMQKTGKAFADEFFAEENQVVHESNAVVLVLMKSDEIDAIIEDIVLKGGKAKNPSIVVEDKAGFWWIKADGAIEIDAAEAGELLGKPFSVYDLLINVSSTVGRAYTLGTKFTITSELMGLDRALTDI	soluble
MGSDKIHHHHHHMYIDGVFSGGGVKGIALAGAYEVLEEKGFRFKRVAGTSAGAIIAAFIASGYTSKEIHALIEEVDGEKLLDQRYSFLPLKMLQWVSIYWRLGLYKGDTIEKWIADLLRAKGIRVFGDLQKGSLRLIASDLTNGTMIVLPDDLARYGLNPDMFPVARAVRMSCSIPYFFEPIKLKTDTGTATVVDGGVLSNFPIWLFSKERKRPVIGVTLAPRERERPKKNIRNAFELFGALFETMKDAHDARHIASRYEQNIIFLPVDDVMATDFHLTQQKKLALIELGKRRTELFLKQWTY	not soluble

----------
# Experiment: soluble on expression in E. coli; label from the status in PepcDB or PDB records
Readout Label: soluble on expression in E. coli

Seq	Readout Label	Observed Result
MAVQRYFVSGQAQQGGIVAISGDDAHHIARVMRMKPGDGIICVFPDGRTAVCEIEQIANEHVQARIVQWKEERSELPVRIYIAQGLPKGEKWELVIQKGTELGAAGFLPFEAARSVVKWDAKKAEKKVERWKKIAKEAAEQAERTVVPDVRAPLSFVELLAFGQTVDVRLFAYEKEARNARHAALPALLSRLRPGGALLAVFGPEGGFSPEEAEQLRQHGFSPCSLGPRILRTETAPLYLLSAASYEWELRAGGEAARGR	soluble on expression in E. coli	not soluble
MLSMCNKYPDFDDEERVRRVDDDFRDVITVFDAPFEGKSPSPAVIVFDELVDSDGSSKYLNFKMEQSYEKVDEIPEKIDAERIRYAIHLGSHSQKNVLQIFQSAYSDGYTEEDKNGKVPVGGKVKCAETETGFRTKINCENVVTAVNEYMDSNREKFGELRIETLNKAERNLDGYIYFSFLKQKPCRNLFIRIPPLE	soluble on expression in E. coli	not soluble
